Target: PI3K beta (Homo sapiens)
Construct: for the full-length p110-b subunit are generated and fused by overlapping PCR; p85(iSH2) fusion partner (same polypeptide; see partner chain) (N); Gly linker (N); His tag (C); Tn5 (Trichoplusia ni) or TiniPro insect cells
Assay: PI3K beta enzymatic assay (Kinase-Glo luminescence)
Details: Enzymatic Data
Experimental: In a more preferred assay, the kinase reaction is performed in a final volume of 10 μL per well of a low volume non binding CORNING, 384 well black plate (Cat. No. #3676). The final concentrations of ATP and phosphatidyl inositol (PI) in the assay are 1 μM and 10 μg/mL respectively. […] IC50 is determined by a four parameter curve fitting routine that comes aloneg with “excel fit”. […] Alternatively, IC50 values are calculated using idbsXLfit model 204, which is a 4 parameter logistic model.
pIC50: −log10 of the molar value.
Test readout: pIC50

So, COc1cc(-c2ccc3nc(C)c(-c4cnc(N)c(C(F)(F)F)c4)n3n2)ccc1OCCNC(=O)c1cccc(C#N)c1 ? Its pIC50 was < 5.04

So, CCS(=O)(=O)c1ccc(-c2c(C)nc3ccc(-c4ccc(OC5CCN(C(=O)OC(C)(C)C)CC5)c(OC)c4)nn23)cc1 ? Its pIC50 was < 5.04

So, COc1cc(-c2ccc3nc(C)c(-c4cnc(N)c(C(F)(F)F)c4)n3n2)ccc1OCCCNC(=O)OC(C)C ? Its pIC50 was < 5.04

###

Molecular target: PI3K alfa (Homo sapiens)
Construct: p85(iSH2) fusion partner (same polypeptide; see partner chain) (N); 12x Gly linker (N); His tag (C); Tn5 (Trichoplusia ni) or TiniPro insect cells
Sequence (P42336 with tags, fused parts or gaps limits assumed): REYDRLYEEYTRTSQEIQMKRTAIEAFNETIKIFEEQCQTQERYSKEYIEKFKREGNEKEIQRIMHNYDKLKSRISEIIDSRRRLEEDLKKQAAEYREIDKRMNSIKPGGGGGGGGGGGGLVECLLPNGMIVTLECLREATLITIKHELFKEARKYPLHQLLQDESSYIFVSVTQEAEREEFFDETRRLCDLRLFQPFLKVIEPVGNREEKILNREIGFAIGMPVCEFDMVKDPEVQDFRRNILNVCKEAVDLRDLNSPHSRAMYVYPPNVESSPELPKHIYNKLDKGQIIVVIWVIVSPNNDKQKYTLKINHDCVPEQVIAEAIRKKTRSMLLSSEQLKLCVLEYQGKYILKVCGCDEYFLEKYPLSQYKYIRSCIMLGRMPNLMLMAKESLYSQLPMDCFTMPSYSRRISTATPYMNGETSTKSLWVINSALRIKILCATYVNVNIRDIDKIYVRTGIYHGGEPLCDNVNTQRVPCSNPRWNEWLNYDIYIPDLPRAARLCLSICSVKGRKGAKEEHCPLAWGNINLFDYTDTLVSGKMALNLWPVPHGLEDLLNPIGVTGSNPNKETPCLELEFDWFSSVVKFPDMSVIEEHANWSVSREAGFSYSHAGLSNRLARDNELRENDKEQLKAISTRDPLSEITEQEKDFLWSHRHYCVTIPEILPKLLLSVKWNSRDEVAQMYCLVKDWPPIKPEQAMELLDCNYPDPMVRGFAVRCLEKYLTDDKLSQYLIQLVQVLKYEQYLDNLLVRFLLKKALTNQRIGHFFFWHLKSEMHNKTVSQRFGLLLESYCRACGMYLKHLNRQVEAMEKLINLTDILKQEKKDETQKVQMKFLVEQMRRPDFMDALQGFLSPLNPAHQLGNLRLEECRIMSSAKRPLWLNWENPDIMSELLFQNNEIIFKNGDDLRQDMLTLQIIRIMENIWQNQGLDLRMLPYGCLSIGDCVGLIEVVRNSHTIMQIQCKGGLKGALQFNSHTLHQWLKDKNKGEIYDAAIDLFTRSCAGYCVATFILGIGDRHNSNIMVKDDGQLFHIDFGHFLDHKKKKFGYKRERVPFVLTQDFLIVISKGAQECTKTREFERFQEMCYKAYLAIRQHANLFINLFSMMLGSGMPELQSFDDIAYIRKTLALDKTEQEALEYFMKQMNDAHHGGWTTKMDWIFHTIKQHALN
Assay: PI3K alfa enzymatic assay (Kinase-Glo luminescence)
Conditions: Enzymatic Data
Provide the reported IC50 of each item.
Reply numerically in nM, unit not repeated.

So, COc1ccc(-c2ccc3nc(C)c(-c4cnccn4)n3n2)cc1OC ? Its IC50 was 181

So, COc1ccc(-c2ccc3nc(C)c(-c4cncc(C#N)c4)n3n2)cc1OC ? Its IC50 was 455

So, CCOc1ccc(-c2ccc3nc(C)c(-c4ccc(-c5ccc(C#N)nc5)nc4)n3n2)cc1OC ? Its IC50 was 58

So, COc1ccc(-c2ccc3nc(C)c(-c4ccnc(N(C)CCN(C)C)n4)n3n2)cc1OC ? Its IC50 was 51

###

Biological target: PI3K beta (Homo sapiens, UniProt P42338)
Construct: for the full-length p110-b subunit are generated and fused by overlapping PCR; p85(iSH2) fusion partner (same polypeptide; see partner chain) (N); Gly linker (N); His tag (C); made in house; host or cells: baculovirus; Tn5 (Trichoplusia ni) or TiniPro insect cells
Sequence (P42338 with tags, fused parts or gaps limits assumed): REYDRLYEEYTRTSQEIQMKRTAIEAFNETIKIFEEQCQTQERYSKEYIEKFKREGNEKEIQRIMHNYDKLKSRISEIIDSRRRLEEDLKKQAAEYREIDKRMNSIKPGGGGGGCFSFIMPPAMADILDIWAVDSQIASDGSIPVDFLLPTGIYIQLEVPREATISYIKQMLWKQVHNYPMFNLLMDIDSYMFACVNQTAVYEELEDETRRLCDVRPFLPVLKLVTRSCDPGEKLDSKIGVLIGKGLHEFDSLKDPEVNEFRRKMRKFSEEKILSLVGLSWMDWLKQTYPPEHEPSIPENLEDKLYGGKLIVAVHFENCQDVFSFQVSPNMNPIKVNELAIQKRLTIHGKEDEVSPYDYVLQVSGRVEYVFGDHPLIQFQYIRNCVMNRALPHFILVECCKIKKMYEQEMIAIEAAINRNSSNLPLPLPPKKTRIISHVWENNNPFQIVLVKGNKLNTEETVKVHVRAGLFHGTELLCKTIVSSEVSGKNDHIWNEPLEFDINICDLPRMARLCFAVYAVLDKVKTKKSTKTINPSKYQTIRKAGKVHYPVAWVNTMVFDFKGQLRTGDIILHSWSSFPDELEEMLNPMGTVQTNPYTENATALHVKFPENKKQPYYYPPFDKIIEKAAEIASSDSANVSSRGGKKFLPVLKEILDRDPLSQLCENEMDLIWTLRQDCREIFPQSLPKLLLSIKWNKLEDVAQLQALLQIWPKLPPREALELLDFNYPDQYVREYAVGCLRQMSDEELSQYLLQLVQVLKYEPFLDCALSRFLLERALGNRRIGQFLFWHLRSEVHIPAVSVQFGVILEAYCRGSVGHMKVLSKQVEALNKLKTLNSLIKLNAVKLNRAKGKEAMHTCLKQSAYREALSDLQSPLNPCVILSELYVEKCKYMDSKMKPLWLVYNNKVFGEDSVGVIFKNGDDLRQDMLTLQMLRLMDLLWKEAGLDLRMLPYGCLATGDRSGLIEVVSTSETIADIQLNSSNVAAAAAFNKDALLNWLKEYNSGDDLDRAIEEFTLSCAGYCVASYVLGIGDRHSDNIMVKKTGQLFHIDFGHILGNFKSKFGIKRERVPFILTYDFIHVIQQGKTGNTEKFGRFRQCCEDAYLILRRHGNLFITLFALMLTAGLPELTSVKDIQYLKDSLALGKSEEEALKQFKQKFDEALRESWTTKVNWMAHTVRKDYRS
Experiment: PI3K beta enzymatic assay (Kinase-Glo luminescence)
Assay type: biochemical
Settings: Enzymatic Data
Description: In a more preferred assay, the kinase reaction is performed in a final volume of 10 μL per well of a low volume non binding CORNING, 384 well black plate (Cat. No. #3676). The final concentrations of ATP and phosphatidyl inositol (PI) in the assay are 1 μM and 10 μg/mL respectively. […] IC50 is determined by a four parameter curve fitting routine that comes aloneg with “excel fit”. […] Alternatively, IC50 values are calculated using idbsXLfit model 204, which is a 4 parameter logistic model.
Provide the reported IC50 of each item.

So, COc1cc(-c2ccc3nc(C)c(-c4ccc(S(C)(=O)=O)cc4)n3n2)ccc1OC1CCNCC1 ? Its IC50 was > 9.1 µM

So, COc1cc(-c2ccc3nc(C)c(-c4cnc(N)c(C(F)(F)F)c4)n3n2)ccc1OCCNC(=O)Nc1cc(OC)c(OC)c(OC)c1 ? Its IC50 was > 9.1 µM

So, COc1ccc(C(=O)NCCOc2ccc(-c3ccc4nc(C)c(-c5cnc(N)c(C(F)(F)F)c5)n4n3)cc2OC)cc1OC ? Its IC50 was > 9.1 µM

###

Biological target: PI3K beta (Homo sapiens, UniProt P42338)
Construct: for the full-length p110-b subunit are generated and fused by overlapping PCR; p85(iSH2) fusion partner (same polypeptide; see partner chain) (N); Gly linker (N); His tag (C); made in house; host or cells: baculovirus; Tn5 (Trichoplusia ni) or TiniPro insect cells
Assay: PI3K beta enzymatic assay (Kinase-Glo luminescence)
Format: biochemical
Conditions: Enzymatic Data
Test readout: IC50

So, COc1cc(-c2ccc3nc(C)c(-c4cnc(N)c(C(F)(F)F)c4)n3n2)ccc1OCCNC(=O)C(C)C [Example 81] ? Its IC50 was > 9.1 µM

So, CCS(=O)(=O)c1ccc(-c2c(C)nc3ccc(-c4ccc(OCCCN5CCCC5=O)cc4)nn23)cc1 [Example 107] ? Its IC50 was > 9.1 µM

So, COc1cccc(C(=O)NCCOc2ccc(-c3ccc4nc(C)c(-c5cnc(N)c(C(F)(F)F)c5)n4n3)cc2OC)c1 [Example 39] ? Its IC50 was > 9.1 µM

So, COC(=O)NC1(COc2ccc(-c3ccc4nc(C)c(-c5cnc(N)c(C(F)(F)F)c5)n4n3)cc2)COC1 [Example 115] ? Its IC50 was > 9.1 µM

###

Provide the reported pIC50 of each item.
pIC50 (log units): -log10 of the concentration in mol/L.

Value (pIC50, PI3K gamma (Homo sapiens)) for record COc1ccc(-c2ccc3nc(C)c(-c4cncc(C#N)c4)n3n2)cc1OC = 5.73

Value (pIC50, PI3K gamma (Homo sapiens)) for record COc1ccc(-c2ccc3nc(C)c(-c4ccc(N5CCNCC5)nc4)n3n2)cc1OC = 6.27

Value (pIC50, PI3K gamma (Homo sapiens)) for record COc1cc(-c2ccc3nc(C)c(-c4cnc(N)c(C(F)(F)F)c4)n3n2)ccc1OCCNC(=O)OC(C)C = 6.19

Value (pIC50, PI3K gamma (Homo sapiens)) for record Cc1nc2ccc(-c3ccc(OCC4(N)COC4)cc3)nn2c1-c1cnc(N)c(C(F)(F)F)c1 = 5.92

Value (pIC50, PI3K gamma (Homo sapiens)) for record COc1ccc(-c2ccc3nc(C)c(-c4ccc(C#N)nc4)n3n2)cc1OC = 6.46

###

Provide the reported IC50 of each item.
Target: PI3K gamma (Homo sapiens)
Sequence (P48736 144-1102 limits assumed): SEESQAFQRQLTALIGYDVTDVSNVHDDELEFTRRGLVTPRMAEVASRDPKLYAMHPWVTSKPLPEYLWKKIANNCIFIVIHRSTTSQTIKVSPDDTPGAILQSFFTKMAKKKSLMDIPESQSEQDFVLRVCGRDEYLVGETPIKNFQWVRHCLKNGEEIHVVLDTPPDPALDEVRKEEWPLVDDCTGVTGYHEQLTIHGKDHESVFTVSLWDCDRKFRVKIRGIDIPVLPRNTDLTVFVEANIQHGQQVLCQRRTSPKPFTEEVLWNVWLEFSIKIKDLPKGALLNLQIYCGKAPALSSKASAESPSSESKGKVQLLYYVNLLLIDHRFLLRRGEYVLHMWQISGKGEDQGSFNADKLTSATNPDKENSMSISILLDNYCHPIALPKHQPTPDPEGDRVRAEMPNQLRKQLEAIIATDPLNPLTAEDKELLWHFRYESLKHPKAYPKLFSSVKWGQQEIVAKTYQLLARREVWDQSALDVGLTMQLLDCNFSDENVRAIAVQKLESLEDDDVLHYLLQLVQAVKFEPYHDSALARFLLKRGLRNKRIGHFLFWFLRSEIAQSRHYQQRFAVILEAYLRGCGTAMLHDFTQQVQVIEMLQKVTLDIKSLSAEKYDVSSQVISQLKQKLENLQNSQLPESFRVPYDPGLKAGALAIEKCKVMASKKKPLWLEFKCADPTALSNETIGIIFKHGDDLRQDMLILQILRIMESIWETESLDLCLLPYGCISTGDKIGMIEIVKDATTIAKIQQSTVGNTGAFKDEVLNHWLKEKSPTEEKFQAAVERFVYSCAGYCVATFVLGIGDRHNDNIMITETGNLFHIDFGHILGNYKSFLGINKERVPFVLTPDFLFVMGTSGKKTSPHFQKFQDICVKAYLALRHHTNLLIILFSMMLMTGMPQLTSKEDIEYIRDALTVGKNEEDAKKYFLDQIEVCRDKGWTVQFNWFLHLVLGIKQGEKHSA

So, Cc1nc2ccc(-c3ccc4c(c3)OCO4)nn2c1-c1cnc2[nH]ccc2c1 [Example 109] ? Its IC50 was > 9.1 µM

So, COc1ccc(-c2ccc(-c3ccc4nc(C)c(-c5ccc(N6CCOCC6)nc5)n4n3)cc2)cc1 [Example 18] ? Its IC50 was > 25 µM

So, COc1cc(-c2ccc3nc(C)c(-c4ccc(S(C)(=O)=O)cc4)n3n2)ccc1OC1CCN(C(=O)OC(C)(C)C)CC1 [Example 98] ? Its IC50 was > 9.1 µM

So, COc1cc(-c2ccc3nc(C)c(-c4ccc(S(C)(=O)=O)cc4)n3n2)ccc1OC1CCNCC1 [Example 101] ? Its IC50 was > 9.1 µM

So, CCS(=O)(=O)c1ccc(-c2c(C)nc3ccc(-c4ccc(OC5CCNCC5)c(OC)c4)nn23)cc1 [Example 102] ? Its IC50 was > 9.1 µM

###

Provide the reported IC50 of each item.
Target: PI3K delta (Homo sapiens, UniProt O00329)
Construct: for the full-length p110-d subunit are generated and fused by overlapping PCR; p85(iSH2) fusion partner (same polypeptide; see partner chain) (N); Gly linker (N); His tag (C); Tn5 (Trichoplusia ni) or TiniPro insect cells
Sequence (O00329 with tags, fused parts or gaps limits assumed): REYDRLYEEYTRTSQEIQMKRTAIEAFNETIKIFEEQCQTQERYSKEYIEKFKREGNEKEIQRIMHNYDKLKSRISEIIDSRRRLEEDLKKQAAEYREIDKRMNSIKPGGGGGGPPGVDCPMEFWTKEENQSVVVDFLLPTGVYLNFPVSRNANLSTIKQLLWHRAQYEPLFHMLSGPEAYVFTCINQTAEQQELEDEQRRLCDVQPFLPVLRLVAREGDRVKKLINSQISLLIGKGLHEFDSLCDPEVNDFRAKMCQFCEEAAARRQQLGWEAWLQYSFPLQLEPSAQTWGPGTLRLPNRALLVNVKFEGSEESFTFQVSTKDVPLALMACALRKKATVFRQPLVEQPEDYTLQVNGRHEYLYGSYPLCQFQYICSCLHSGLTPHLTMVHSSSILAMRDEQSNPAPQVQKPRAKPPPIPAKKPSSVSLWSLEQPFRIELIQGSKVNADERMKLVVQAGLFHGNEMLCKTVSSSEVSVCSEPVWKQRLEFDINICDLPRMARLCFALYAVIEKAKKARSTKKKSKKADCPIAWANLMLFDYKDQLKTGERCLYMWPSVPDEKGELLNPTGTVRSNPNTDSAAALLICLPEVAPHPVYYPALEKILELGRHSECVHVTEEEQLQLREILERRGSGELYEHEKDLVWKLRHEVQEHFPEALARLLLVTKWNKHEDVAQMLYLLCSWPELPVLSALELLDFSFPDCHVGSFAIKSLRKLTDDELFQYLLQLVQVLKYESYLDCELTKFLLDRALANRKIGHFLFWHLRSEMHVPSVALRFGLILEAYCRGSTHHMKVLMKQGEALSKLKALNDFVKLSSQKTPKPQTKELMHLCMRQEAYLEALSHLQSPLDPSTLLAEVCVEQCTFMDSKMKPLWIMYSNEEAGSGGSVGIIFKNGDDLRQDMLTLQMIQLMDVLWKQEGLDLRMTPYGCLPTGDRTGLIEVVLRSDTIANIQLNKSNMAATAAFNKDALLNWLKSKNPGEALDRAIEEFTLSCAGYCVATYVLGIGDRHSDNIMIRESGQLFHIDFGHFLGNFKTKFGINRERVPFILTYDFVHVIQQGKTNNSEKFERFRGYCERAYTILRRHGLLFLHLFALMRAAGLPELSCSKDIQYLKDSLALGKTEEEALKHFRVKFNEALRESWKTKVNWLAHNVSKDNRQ
Assay: PI3K delta enzymatic assay (Kinase-Glo luminescence)
Settings: Enzymatic Data

Value (IC50, PI3K delta (Homo sapiens, UniProt O00329)) for record CCS(=O)(=O)c1ccc(-c2c(C)nc3ccc(-c4ccc(OC5CCN(C(=O)OC(C)(C)C)CC5)c(OC)c4)nn23)cc1 = > 9100 nM

Value (IC50, PI3K delta (Homo sapiens, UniProt O00329)) for record COc1ccc(-c2ccc3nc(C)c(-c4cnc(N)c(C(F)(F)F)c4)n3n2)cc1OCCCNC(=O)c1ccncc1 = 966 nM

Value (IC50, PI3K delta (Homo sapiens, UniProt O00329)) for record COc1cccc(NC(=O)NCCOc2ccc(-c3ccc4nc(C)c(-c5cnc(N)c(C(F)(F)F)c5)n4n3)cc2OC)c1 = > 9100 nM

Value (IC50, PI3K delta (Homo sapiens, UniProt O00329)) for record COc1cccc(NC(=O)NCCCOc2cc(-c3ccc4nc(C)c(-c5cnc(N)c(C(F)(F)F)c5)n4n3)ccc2OC)c1 = > 9100 nM

Value (IC50, PI3K delta (Homo sapiens, UniProt O00329)) for record COc1cc(-c2ccc3nc(C)c(-c4cnc(N)c(C(F)(F)F)c4)n3n2)ccc1OCCNC(=O)Nc1cccc(C#N)c1 = > 9100 nM

Value (IC50, PI3K delta (Homo sapiens, UniProt O00329)) for record COc1cc(-c2ccc3nc(C)c(-c4cnc(N)c(C(F)(F)F)c4)n3n2)ccc1OCCNC(=O)c1cccnc1 = 748 nM

Value (IC50, PI3K delta (Homo sapiens, UniProt O00329)) for record CCOc1ccc(-c2ccc3nc(C)c(-c4ccc(N5CCOCC5)nc4)n3n2)cc1OC = 2050 nM

Value (IC50, PI3K delta (Homo sapiens, UniProt O00329)) for record Cc1nc2ccc(-c3ccc4c(c3)OCO4)nn2c1-c1cnc2[nH]ccc2c1 = 3940 nM

Value (IC50, PI3K delta (Homo sapiens, UniProt O00329)) for record COc1ccc(-c2ccc3nc(C)c(-c4ccn(S(=O)(=O)c5cccc(C#N)c5)n4)n3n2)cc1OC = 124 nM

Value (IC50, PI3K delta (Homo sapiens, UniProt O00329)) for record COc1cccc(C(=O)NCCOc2ccc(-c3ccc4nc(C)c(-c5cnc(N)c(C(F)(F)F)c5)n4n3)cc2OC)c1 = > 9100 nM

Value (IC50, PI3K delta (Homo sapiens, UniProt O00329)) for record COc1ccc(-c2ccc3nc(C)c(-c4cc[nH]n4)n3n2)cc1OC = 1390 nM

Value (IC50, PI3K delta (Homo sapiens, UniProt O00329)) for record COCCOCCOCCOc1ccc(-c2ccc3nc(C)c(-c4cnc(N)c(C(F)(F)F)c4)n3n2)cc1OC = 174 nM
